Some compounds, each annotated with its measured pIC50.
# study_target: BRD4 Bromodomain 2 (BRD4 BD2) (Homo sapiens)
# Construct: 333-460 were cloned, expressed, and purified to homogeneity
# test_name: AlphaScreen binding assay, BRD4 BD2
# setup_conditions: His-tagged BRD4 BD2 100 nM, biotinylated H4 (1-21) K5/8/12/16 tetra-acetylated peptide 100 nM, compounds listed under IC50 range headings
pIC50: −log10 of the molar value.

Here's what some known entries look like.
{"compound": "CC(=O)N1c2ccc(-c3cnn(CCS(C)(=O)=O)c3)c(OCC(=O)N(C)C)c2CC[C@@H]1C", "result": "6.30 to 7.30"}
{"compound": "COC(=O)N1c2ccc(-c3cnn(CCO)c3)c(OCCN(C)S(C)(=O)=O)c2CC[C@@H]1C", "result": "6.30 to 7.30"}

Looking for the measured pIC50 of COC(=O)N1c2ccc(-c3cnn(C4CC4)c3)c(OCC(F)F)c2CC[C@@H]1C , can you help?
6.30 to 7.30

Now try CC(=O)N1c2ccc(-c3cnn(C4CC4)c3)c(Oc3nccc4ccccc34)c2CC[C@@H]1C .
> 7.30

Now try CC(=O)N1c2ccc(-c3cnn(C4CCNCC4)c3)c(OC3CCC3)c2CC[C@@H]1C .
> 7.30

Now try CC(=O)N1c2ccc(-c3cnn(C4CC4)c3)c(OCC3CCOCC3)c2CC[C@@H]1C .
6.30 to 7.30

Now try COC(=O)N1c2ccc(-c3cnn(C4CCNCC4)c3)c(Oc3cccc(C#N)c3)c2CC[C@@H]1C .
6.30 to 7.30

Now try COC(=O)N1c2ccc(-c3cnn(CCO)c3)c(Oc3cnccn3)c2CC[C@@H]1C .
6.30 to 7.30

Now try CC(=O)N1c2ccc(-c3cnn(C4CC4)c3)c(Oc3ncccc3Cl)c2CC[C@@H]1C .
6.30 to 7.30

Now try COC(=O)N1c2ccc(-c3cnn(C4CC4)c3)c(OCCN3CCCC3=O)c2CC[C@@H]1C .
6.30 to 7.30

Now try CC(=O)N1c2ccc(-c3cnn(C4CCNCC4)c3)c(Oc3ncc(C)cn3)c2CC[C@@H]1C .
> 7.30

Now try CC(=O)N1c2ccc(-c3cnn(C4CC4)c3)c(OC(CF)CF)c2CC[C@@H]1C .
6.30 to 7.30

Now try CCCOc1c(-c2cnn(CC(C)(C)O)c2)ccc2c1CC[C@H](C)N2C(=O)OC .
> 7.30

Now try COc1cnc(Oc2c(-c3cnn(CCO)c3)ccc3c2CC[C@H](C)N3C(C)=O)nc1 .
> 7.30

Now try CC(=O)N1c2ccc(-c3cnn(C4CCNCC4)c3)c(Nc3ccccc3)c2CC[C@@H]1C .
6.30 to 7.30

Now try CC(=O)N1c2ccc(-c3cnn(CC(C)(C)O)c3)c(OC[C@H]3CCC(=O)N3)c2CC[C@@H]1C .
6.30 to 7.30

Now try CC(=O)N1c2ccc(-c3cnn(C4CC4)c3)c(Oc3ncc4cn[nH]c4n3)c2CC[C@@H]1C .
6.30 to 7.30

Now try COC(=O)N1c2ccc(-c3cnn(C4CC4)c3)c(OC3CC(F)(F)C3)c2CC[C@@H]1C .
≤ 6.30

Now try CC(=O)N1c2ccc(-c3cnn(CCO)c3)c(OCC3CCOCC3)c2CC[C@@H]1C .
> 7.30

Now try CC(=O)N1c2ccc(-c3cnn(C4CC4)c3)c(OCC3CC3(F)F)c2CC[C@@H]1C (stereo partly shown) .
> 7.30

Now try CCCOc1c(-c2ccc(S(C)(=O)=O)cc2)ccc2c1CC[C@H](C)N2C(C)=O .
≤ 6.30

Now try C[C@H]1CCc2c(ccc(-c3cnn(C4CCNCC4)c3)c2Oc2ccc(F)cc2)N1C(=O)C1CC1 .
> 7.30

Now try COC(=O)N1c2ccc(-c3cnn(C4CCNCC4)c3)c(Oc3ccccc3F)c2CC[C@@H]1C .
> 7.30

Now try COC(=O)N1c2ccc(-c3cnn(C4CCNCC4)c3)c(Oc3ccc(F)cc3F)c2CC[C@@H]1C .
> 7.30

Now try COCCOc1c(-c2cnn(C3CC3)c2)ccc2c1CC[C@H](C)N2C(C)=O .
6.30 to 7.30

Now try COC(=O)N1c2ccc(-c3cnn(CCO)c3)c(OCC(=O)N(C)C)c2CC[C@@H]1C .
6.30 to 7.30

---

Some molecules, each annotated with its measured pIC50.
# study_target: BRD4 Bromodomain 1 (BRD4 BD1) (Homo sapiens)
# Construct: 44-168 and BRD4 BD2
# test_name: AlphaScreen binding assay, BRD4 BD1
# setup_conditions: His-tagged BRD4 BD1 50 nM, biotinylated H4 (1-21) K5/8/12/16 tetra-acetylated peptide 50 nM, compounds listed under IC50 range headings
pIC50: −log10 of the molar value.

{"smiles_entry": "CC(=O)N1c2ccc(-c3cnn(C4CC4)c3)c(Oc3ccc(Cl)cn3)c2CC[C@@H]1C", "study_target": "BRD4 Bromodomain 1 (BRD4 BD1) (Homo sapiens)", "result": "6.00 to 7.00"}
{"smiles_entry": "CCCOc1c(-c2cccc(NS(C)(=O)=O)c2)ccc2c1CC[C@H](C)N2C(C)=O", "study_target": "BRD4 Bromodomain 1 (BRD4 BD1) (Homo sapiens)", "result": "5.00 to 6.00"}
{"smiles_entry": "CC(=O)N1c2ccc(-c3ccc4c(c3)CCN4S(C)(=O)=O)c(Oc3ncc(F)cn3)c2CC[C@@H]1C", "study_target": "BRD4 Bromodomain 1 (BRD4 BD1) (Homo sapiens)", "result": "5.00 to 6.00"}

Looking for the measured pIC50 of CC(=O)N1c2ccc(-c3cnn(C4CC4)c3)c(OC3CC3)c2CC[C@@H]1C , can you help?
6.00 to 7.00

Now try CC(=O)N1c2ccc(-c3cnn(CCS(C)(=O)=O)c3)c(Oc3ncc(F)cn3)c2CC[C@@H]1C .
6.00 to 7.00

Now try CC(=O)N1c2ccc(-c3cnn(C4CC4)c3)c(OCC3(F)COC3)c2CC[C@@H]1C .
6.00 to 7.00

Now try CC(=O)N1c2c(F)c(F)c(-c3cnn(C4CCNCC4)c3)c(OC3CCC3)c2CC[C@@H]1C .
5.00 to 6.00

Now try COC(=O)N1c2ccc(-c3cnn([C@H]4CCNC[C@@H]4F)c3)c(Oc3ccc(F)cc3)c2CC[C@@H]1C .
6.00 to 7.00

---

# study_target: BRD4 Bromodomain 2 (BRD4 BD2) (Homo sapiens)
# Construct: 333-460 were cloned, expressed, and purified to homogeneity
# test_name: AlphaScreen binding assay, BRD4 BD2
# setup_conditions: His-tagged BRD4 BD2 100 nM, biotinylated H4 (1-21) K5/8/12/16 tetra-acetylated peptide 100 nM, compounds listed under IC50 range headings
pIC50: −log10 of the molar value.
Some compounds, each annotated with its measured pIC50.

{"smiles_entry": "COC(=O)N1c2ccc(-c3cnn(C4CC4)c3)c(Oc3ccc(C(N)=O)cc3)c2CC[C@@H]1C", "pIC50": "> 7.30"}
{"smiles_entry": "CC(=O)N1c2ccc(-c3cnn(CC(C)(C)O)c3)c(OC[C@H]3CCNC3)c2CC[C@@H]1C", "pIC50": "≤ 6.30"}
{"smiles_entry": "CC(=O)N1c2ccc(-c3cnn(C4CC4)c3)c(OCc3nc4ccccc4o3)c2CC[C@@H]1C", "pIC50": "≤ 6.30"}
{"smiles_entry": "CC(=O)N1c2ccc(-c3ccc(S(C)(=O)=O)cc3)c(Oc3ncc(F)cn3)c2CC[C@@H]1C", "pIC50": "6.30 to 7.30"}

Looking for the measured pIC50 of COC(=O)N1c2ccc(-c3cnn(C4CC4)c3)c(Oc3cnccn3)c2CC[C@@H]1C , can you help?
6.30 to 7.30

Now try COC(=O)N1c2ccc(-c3cnn(C4CC4)c3)c(OCC(C)(C)F)c2CC[C@@H]1C .
6.30 to 7.30

Now try COC(=O)N1c2ccc(-c3cnn(C4CC4)c3)c(OCC3(CO)COC3)c2CC[C@@H]1C .
6.30 to 7.30

Now try CC(=O)N1c2ccc(-c3cnn(C4CCNCC4)c3)c(Oc3ccccc3)c2CC[C@@H]1C .
> 7.30

---

Some compounds, each annotated with its measured IC50.
# study_target: BRD4 Bromodomain 2 (BRD4 BD2) (Homo sapiens, UniProt O60885)
# Construct: 333-460 were cloned, expressed, and purified to homogeneity
# test_name: AlphaScreen binding assay, BRD4 BD2
# setup_conditions: His-tagged BRD4 BD2 100 nM, biotinylated H4 (1-21) K5/8/12/16 tetra-acetylated peptide 100 nM, compounds listed under IC50 range headings

Here's what some known entries look like.
{"compound": "CCCOc1c(C2CCN(C(C)=O)CC2)ccc2c1CC[C@H](C)N2C(C)=O [I-354]", "IC50": "≥ 0.5 µM"}
{"compound": "CCCOc1c(-c2ccc(NS(C)(=O)=O)cc2)ccc2c1CC[C@H](C)N2C(C)=O [I-494]", "IC50": "0.05 to 0.5 µM"}
{"compound": "CC(=O)N1c2ccc(-c3cnn(C4CC4)c3)c(Oc3ccccc3C#N)c2CC[C@@H]1C [I-153]", "IC50": "< 0.05 µM"}
{"compound": "COC(=O)N1c2ccc(-c3cnn(CCS(C)(=O)=O)c3)c(OCC3CCCC3)c2CC[C@@H]1C [I-459]", "IC50": "0.05 to 0.5 µM"}

Looking for the measured IC50 of CC(=O)N1c2ccc(-c3cnn(C4CCNCC4)c3)c(Oc3ncccc3C(F)(F)F)c2CC[C@@H]1C [I-141] , can you help?
< 0.05 µM

Now try CCCOc1c(-c2cccc(S(C)(=O)=O)c2)ccc2c1CC[C@H](C)N2C(C)=O [I-492] .
0.05 to 0.5 µM

Now try CC(=O)N1c2ccc(-c3cnn(C(C)(C)CO)c3)c(Oc3ncc(F)cn3)c2CC[C@@H]1C [I-552] .
< 0.05 µM

Now try C[C@H]1CCc2c(ccc(-c3cnn(C4CCNCC4)c3)c2Oc2ccc(F)c(Cl)c2)N1C(=O)C1CC1 [I-169] .
< 0.05 µM

Now try CC(=O)N1c2ccc(-c3cnn(CCO)c3)c(Oc3ncc(C4CC4)cn3)c2CC[C@@H]1C [I-547] .
< 0.05 µM

Now try COC(=O)N1c2ccc(-c3cnn(C4CCNCC4)c3)c(Oc3ncccn3)c2CC[C@@H]1C [I-525] .
0.05 to 0.5 µM

Now try CC(=O)N1c2ccc(-c3cnn(C4CCNCC4)c3)c(Oc3ccc(C(F)(F)F)cn3)c2CC[C@@H]1C [I-512] .
0.05 to 0.5 µM

Now try COC(=O)N1c2ccc(-c3cnn(C4CCNCC4)c3)c(Oc3ccccc3)c2CC[C@@H]1C [I-200] .
< 0.05 µM

Ref: patent US10611750B2
